System: BRD4(1) (Homo sapiens, UniProt O60885)
Construct: T7 phage strains displaying bromodomains
Test name: BROMOscan
Test settings: BROMOscan, n=2; read-out: dissociation constant (Kd) in complex with BRD4-BD1
pKd: −log10 of the molar value.
Property label: pKd

• CCc1c(C(=O)Nc2cc(S(=O)(=O)N(CC)CC)ccc2O)[nH]c(C)c1C(C)=O = 6.80

====

System: FALZ (Homo sapiens)
Construct: T7 phage strains displaying bromodomains
Test name: BROMOscan
Test settings: BROMOscan
Property label: Kd

* CCc1c(C(=O)NC)[nH]c(C)c1C(C)=O | > 50 µM
